# reported pIC50; entries follow
molecular target: Poly [ADP-ribose] polymerase 1 (Homo sapiens); test: Inhibition of PARP1 (unknown origin) using activated DNA as substrate measured after 60 mins in presence of biotinylated NAD by colorimetric assay
Sequence (P09874 whole entry): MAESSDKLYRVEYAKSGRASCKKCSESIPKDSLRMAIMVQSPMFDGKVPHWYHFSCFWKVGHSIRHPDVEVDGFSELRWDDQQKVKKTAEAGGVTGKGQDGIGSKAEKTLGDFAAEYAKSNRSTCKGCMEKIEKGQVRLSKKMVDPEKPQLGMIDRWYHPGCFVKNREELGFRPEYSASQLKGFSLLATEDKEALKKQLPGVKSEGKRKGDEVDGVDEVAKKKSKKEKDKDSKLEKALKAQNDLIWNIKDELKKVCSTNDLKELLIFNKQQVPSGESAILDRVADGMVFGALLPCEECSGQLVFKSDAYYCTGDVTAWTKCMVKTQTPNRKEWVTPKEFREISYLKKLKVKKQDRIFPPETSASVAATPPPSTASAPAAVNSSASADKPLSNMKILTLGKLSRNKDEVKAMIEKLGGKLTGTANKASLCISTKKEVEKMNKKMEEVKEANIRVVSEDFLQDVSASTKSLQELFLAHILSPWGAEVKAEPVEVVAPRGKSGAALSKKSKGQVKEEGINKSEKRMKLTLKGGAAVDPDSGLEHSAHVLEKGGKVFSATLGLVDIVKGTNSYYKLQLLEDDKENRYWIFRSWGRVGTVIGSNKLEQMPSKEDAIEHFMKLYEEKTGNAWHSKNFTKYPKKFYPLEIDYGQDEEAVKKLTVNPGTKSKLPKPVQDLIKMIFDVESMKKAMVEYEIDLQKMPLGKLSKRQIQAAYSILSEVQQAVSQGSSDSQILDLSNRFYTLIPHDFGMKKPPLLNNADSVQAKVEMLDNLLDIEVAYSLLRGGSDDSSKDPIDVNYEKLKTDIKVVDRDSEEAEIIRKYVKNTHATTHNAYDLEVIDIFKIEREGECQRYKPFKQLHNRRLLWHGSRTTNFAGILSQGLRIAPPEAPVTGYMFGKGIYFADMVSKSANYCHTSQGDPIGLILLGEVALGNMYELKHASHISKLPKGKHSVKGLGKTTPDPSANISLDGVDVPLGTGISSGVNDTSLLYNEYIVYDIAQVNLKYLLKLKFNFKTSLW
pIC50: −log10 of the molar value.

What value of pIC50 has been reported for the following compound? O=C1NC(=O)/C(=C/c2cn(Cc3ccccc3)c3ccccc23)S1
< 4.00

---
Item O=C1NC(=O)/C(=C/c2c[nH]c3ccccc23)S1 has what recorded pIC50?
< 4.00

Give its pIC50 value. Item: O=C1NC(=O)/C(=C/c2cn(Cc3ccc(Cl)cc3)c3ccccc23)S1
< 4.00

Could you share which pIC50 value was measured for CC(C)c1ccc(Cn2cc(C=C3SC(=O)NC3=O)c3ccccc32)cc1 ?
6.13

Cited source for all entries: ChEMBL document CHEMBL4028835
